# assay.system: GPR6 (Homo sapiens, UniProt P46095)
# Construct: expressed in transfected cells; host or cells: CHO cells
# Sequence (P46095 whole entry): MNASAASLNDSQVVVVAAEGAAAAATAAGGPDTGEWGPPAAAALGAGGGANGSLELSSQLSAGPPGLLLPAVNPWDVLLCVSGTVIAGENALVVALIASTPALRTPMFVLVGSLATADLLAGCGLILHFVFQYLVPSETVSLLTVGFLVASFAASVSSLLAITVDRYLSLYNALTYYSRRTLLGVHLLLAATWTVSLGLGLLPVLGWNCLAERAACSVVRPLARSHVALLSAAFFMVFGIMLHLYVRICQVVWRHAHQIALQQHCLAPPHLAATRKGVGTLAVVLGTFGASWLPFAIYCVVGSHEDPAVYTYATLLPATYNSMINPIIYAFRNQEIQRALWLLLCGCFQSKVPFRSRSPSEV
# test.summary: GPR6 antagonist functional cAMP assay (LANCE Ultra cAMP TR-FRET, CHO cells stably expressing GPR6)
# Type: cell-based
# cond: procedure of Example 24
quantity.kind: IC50

CC(=O)N1CCc2nc(N3CCN(Cc4ccc(F)cc4C#N)CC3)c(-c3cnn(C)c3)nc2C1
1000 to 30000 nM

I am curious: what IC50 value has been reported for "Cn1cc(-c2nc3cnc(N)cc3nc2N2CCC(Oc3ccc(F)cc3F)CC2)cn1" ? 100 to 1000 nM

"COc1cccc(CN2CCN(c3nc4c(nc3-c3cnn(C)c3)CN(C(C)=O)CC4)CC2)c1F" ? ≥ 30000 nM

Okay, and "COc1ccc(C(=O)N2CCN(c3nc4c(nc3-c3cnn(C)c3)CN(C(C)=O)CC4)CC2)nc1" ? 1000 to 30000 nM

Also CC(C)(O)C(O)c1cc2nc(-c3cnn(CF)c3)c(N3CCC(=Cc4ccc(F)cc4F)CC3)nc2cn1 (single isomer, unassigned) [Compound 777] , if possible. 100 to 1000 nM

Then "CC(C)(O)C(=O)c1cc2nc(N3CCC(Oc4ccc(F)cc4F)CC3)c(-c3cnn(CF)c3)nc2cn1" ? 100 to 1000 nM

For CCn1cc(-c2nc3cnc(C(C)(O)C(C)(C)O)cc3nc2N2CCC(Oc3ccc(F)cc3F)CC2)cn1 (stereo not shown) then? 100 to 1000 nM

###

We begin with a simple list: items and their reported IC50.
# assay.system: GPR3 (Homo sapiens, UniProt P46089)
# Construct: expressed in transfected cells; host or cells: CHO cells
# Sequence (P46089 whole entry, species assumed): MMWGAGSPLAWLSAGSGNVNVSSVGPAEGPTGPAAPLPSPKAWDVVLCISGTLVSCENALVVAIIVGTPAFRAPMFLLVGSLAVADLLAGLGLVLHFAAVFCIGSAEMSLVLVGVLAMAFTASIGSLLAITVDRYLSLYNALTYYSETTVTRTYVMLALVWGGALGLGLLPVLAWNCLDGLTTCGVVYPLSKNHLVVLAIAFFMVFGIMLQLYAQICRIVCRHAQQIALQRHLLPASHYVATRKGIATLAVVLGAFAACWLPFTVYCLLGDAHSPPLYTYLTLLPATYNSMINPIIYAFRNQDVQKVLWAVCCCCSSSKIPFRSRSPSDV
# test.summary: GPR3 antagonist functional cAMP assay (LANCE Ultra cAMP TR-FRET, CHO cells stably expressing GPR3)
# Assay type: cell-based
# cond: procedure of Example 24

CCn1cc(-c2nc3c(nc2N2CCC(Oc4ccc(F)cc4F)CC2)CCN(C(=O)CO)C3)cn1
1000 to 30000 nM

Please report the recorded IC50 for "Cn1cc(-c2nc3c(Cl)nccc3nc2N2CCC(Oc3ccc(F)cc3F)CC2)cn1" . 1000 to 30000 nM

Moving on to the next compound: CC(=O)N1CCc2nc(N3CCC(COc4ccc(F)cc4)C3)c(-c3cnn(C)c3)nc2C1 (stereo not shown) 1000 to 30000 nM

Do the same for "Cn1cc(-c2nc3cnccc3nc2N2CCC(Cc3ccc(F)cc3F)CC2)cn1" please 100 to 1000 nM

Follow-up item: "CCn1cc(-c2nc3c(nc2N2CCC(Oc4ccc(F)cc4F)CC2)CCN(C(=O)C(C)(C)O)C3)cn1" 100 to 1000 nM

Follow-up entry: CCn1cc(-c2nc3cnc(C(C)(O)C(C)(C)O)cc3nc2N2CCN(Cc3ccc(F)cc3F)CC2)cn1 (stereo not shown) 1000 to 30000 nM

Can you handle Cn1cc(-c2nc3cnc(C(C)(O)C(C)(C)O)cc3nc2N2CCN(Cc3ccc(F)cc3F)CC2)cn1 (stereo not shown) next? 1000 to 30000 nM

Further, for "CC(=O)N1CCc2nc(N3CCc4c(cnn4-c4ccc(F)cc4F)C3)c(-c3cnn(C)c3)nc2C1" ? 1000 to 30000 nM

How about CC(=O)N1CCc2nc(N3CCC(C(=O)Nc4ccc(F)cc4F)C3)c(-c3cnn(C)c3)nc2C1 (stereo not shown) ? ≥ 30000 nM

Follow-up item: CC(=O)N1CCc2nc(N3CCC(Oc4ccccc4F)C3)c(-c3cnn(C)c3)nc2C1 (stereo not shown) ≥ 30000 nM

Again, but for "CCn1cc(-c2nc3c(nc2N2CCC(Oc4ccc(F)cc4F)CC2)CCN(C(=O)OC)C3)cn1" 1000 to 30000 nM

Quick one: CC(C)(O)[C@H](O)c1cc2nc(N3CCN(Cc4ccccc4F)CC3)c(-c3cnn(CF)c3)nc2cn1 (single isomer, unassigned) 1000 to 30000 nM

Similarly, COCC(O)c1cc2nc(N3CCN(Cc4ccc(F)cc4F)CC3)c(-c3cnn(C(F)F)c3)nc2cn1 (stereo not shown) ? 1000 to 30000 nM

Continue with "CCn1cc(-c2nc3c(nc2N2CCC(Oc4ccc(F)cc4F)CC2)CCN(C(=O)C2COC2)C3)cn1" 1000 to 30000 nM

Also need "CC(C)(O)C(=O)c1cc2nc(N3CCC(Oc4ccc(F)cc4F)CC3)c(-c3cnn(CF)c3)nc2cn1" , thanks. 1000 to 30000 nM

Next record, please: "COc1ccc(CNc2nc(-c3nc4c(nc3N3CCC(Cc5cc(F)ccc5F)CC3)CCN(C(C)=O)C4)ccc2F)cc1" 1000 to 30000 nM

Record: COC1CCC(c2nc3c(nc2N2CCC(Oc4ccc(F)cc4F)CC2)CCN(C(C)=O)C3)CC1 (stereo not shown) 1000 to 30000 nM

For "CC(C)(O)Cc1cc2nc(-c3cnn(C(F)F)c3)c(N3CCC(Oc4ccc(F)cc4F)CC3)nc2cn1" then? 1000 to 30000 nM

Could you do the same for "CCn1cc(-c2nc3cnccc3nc2N2CCC(Oc3cc(Cl)ccc3Cl)CC2)cn1" , please? 1000 to 30000 nM

Follow-up item: "CC(=O)N1CCc2nc(N3CCN(Cc4ccc(Cl)cc4Cl)CC3)c(-c3cnn(C)c3)nc2C1" 1000 to 30000 nM

What about this compound? CC(C)(O)[C@@H](O)c1cc2nc(-c3cn[nH]c3)c(N3CCN(Cc4ccc(F)cc4F)CC3)nc2cn1 (single isomer, unassigned) 1000 to 30000 nM

Another: "CC(=O)N1CCc2nc(N3CCN(Cc4cc(Cl)ccc4F)CC3)c(-c3cnn(C)c3)nc2C1" 1000 to 30000 nM

Further, for "CC(=O)N1CCc2nc(N3CCC(C(F)(F)c4ccc(F)cc4F)CC3)c(-c3cnn(C)c3)nc2C1" ? 1000 to 30000 nM

Same for CC(C)(O)[C@@](C)(O)c1cc2nc(-c3cnn(CF)c3)c(N3CCN(Cc4ccccc4F)CC3)nc2cn1 (single isomer, unassigned) 1000 to 30000 nM

Try the compound CC(C)(O)[C@H](O)c1cc2nc(-c3cnn(C(F)F)c3)c(N3CCN(Cc4ccccc4F)CC3)nc2cn1 (single isomer, unassigned) 1000 to 30000 nM

Now consider Cn1cc(-c2nc3cc([C@](C)(O)CO)ncc3nc2N2CCC(Oc3ccc(F)cc3F)CC2)cn1 (single isomer, unassigned) and answer again. 1000 to 30000 nM

Request: "COC(=O)/C(C)=C/c1cc2nc(N3CCC(Oc4ccc(F)cc4F)CC3)c(-c3cnn(C)c3)nc2cn1" 1000 to 30000 nM

Do the same for Cn1cc(-c2nc3cnccc3nc2N2CC[C@H](Oc3ccc(F)cc3F)[C@H](F)C2)cn1 (single isomer, unassigned) please 1000 to 30000 nM

###

Consider the following molecules and their measured pIC50 readings.
# assay.system: GPR3 (Homo sapiens, UniProt P46089)
# Construct: expressed in transfected cells; host or cells: CHO cells
# test.summary: GPR3 antagonist functional cAMP assay (LANCE Ultra cAMP TR-FRET, CHO cells stably expressing GPR3)
# Assay type: cell-based
# cond: procedure of Example 24
pIC50: −log10 of the molar value.

# annotated cases, reported pIC50 shown
CC(C)(O)C(O)c1cc2nc(-c3cnn(CF)c3)c(N3CCC(=Cc4ccc(F)cc4F)CC3)nc2cn1 (single isomer, unassigned) [Compound 777]
6.00 to 7.00
CC(C)(O)C(O)c1cc2nc(-c3cnn(CF)c3)c(N3CCN(Cc4ccccc4F)CC3)nc2cn1 (single isomer, unassigned) [Compound 707]
4.52 to 6.00
CC(C)(O)Cc1cc2nc(-c3cnn(C4CC4)c3)c(N3CCC(Oc4ccc(F)cc4F)CC3)nc2cn1 [Compound 704]
4.52 to 6.00
CC(=O)N1CCc2nc(N3CCC(Oc4ccc(F)cc4F)CC3)c(C3=CCOC3)nc2C1 [Compound 306]
4.52 to 6.00
CCn1cc(-c2nc3c(nc2N2CCC(Oc4ccc(F)cc4F)CC2)CCN(C(=O)N(C)C)C3)cn1 [Compound 300]
4.52 to 6.00

For the molecule Cn1cc(-c2nc3cnccc3nc2N2CCc3c(cnn3-c3ccc(F)cc3F)C2)cn1 [Compound 788] , what pIC50 is on record? ≤ 4.52

What about CCn1cc(-c2nc3cnc([C@](C)(O)C(C)(C)O)cc3nc2N2CCN(Cc3ccc(F)cc3F)CC2)cn1 (single isomer, unassigned) [Compound 697] ? 4.52 to 6.00

Would you mind doing CC(C)(O)[C@@](C)(O)c1cc2nc(N3CCC(Oc4ccc(F)cc4F)CC3)c(-c3cnn(CF)c3)nc2cn1 (single isomer, unassigned) [Compound 678] as well? 4.52 to 6.00

Could you do the same for COc1cccc(CN2CCN(c3nc4c(nc3-c3cnn(C)c3)CN(C(C)=O)CC4)CC2)c1F [Compound 318] , please? 4.52 to 6.00

Now this one: CC(C)(O)C(O)c1cc2nc(-c3cn[nH]c3)c(N3CCC(=Cc4ccc(F)cc4F)CC3)nc2cn1 (stereo not drawn) [Compound 780] 6.00 to 7.00

Consider next the molecule CC(=O)N1CCc2nc(N3CCN(Cc4ccc(F)c(F)c4)CC3)c(-c3cnn(C)c3)nc2C1 [Compound 321] in the same way. 4.52 to 6.00
